Molecular target: FAK (Homo sapiens, UniProt Q05397)
Sequence (Q05397 whole entry, species assumed): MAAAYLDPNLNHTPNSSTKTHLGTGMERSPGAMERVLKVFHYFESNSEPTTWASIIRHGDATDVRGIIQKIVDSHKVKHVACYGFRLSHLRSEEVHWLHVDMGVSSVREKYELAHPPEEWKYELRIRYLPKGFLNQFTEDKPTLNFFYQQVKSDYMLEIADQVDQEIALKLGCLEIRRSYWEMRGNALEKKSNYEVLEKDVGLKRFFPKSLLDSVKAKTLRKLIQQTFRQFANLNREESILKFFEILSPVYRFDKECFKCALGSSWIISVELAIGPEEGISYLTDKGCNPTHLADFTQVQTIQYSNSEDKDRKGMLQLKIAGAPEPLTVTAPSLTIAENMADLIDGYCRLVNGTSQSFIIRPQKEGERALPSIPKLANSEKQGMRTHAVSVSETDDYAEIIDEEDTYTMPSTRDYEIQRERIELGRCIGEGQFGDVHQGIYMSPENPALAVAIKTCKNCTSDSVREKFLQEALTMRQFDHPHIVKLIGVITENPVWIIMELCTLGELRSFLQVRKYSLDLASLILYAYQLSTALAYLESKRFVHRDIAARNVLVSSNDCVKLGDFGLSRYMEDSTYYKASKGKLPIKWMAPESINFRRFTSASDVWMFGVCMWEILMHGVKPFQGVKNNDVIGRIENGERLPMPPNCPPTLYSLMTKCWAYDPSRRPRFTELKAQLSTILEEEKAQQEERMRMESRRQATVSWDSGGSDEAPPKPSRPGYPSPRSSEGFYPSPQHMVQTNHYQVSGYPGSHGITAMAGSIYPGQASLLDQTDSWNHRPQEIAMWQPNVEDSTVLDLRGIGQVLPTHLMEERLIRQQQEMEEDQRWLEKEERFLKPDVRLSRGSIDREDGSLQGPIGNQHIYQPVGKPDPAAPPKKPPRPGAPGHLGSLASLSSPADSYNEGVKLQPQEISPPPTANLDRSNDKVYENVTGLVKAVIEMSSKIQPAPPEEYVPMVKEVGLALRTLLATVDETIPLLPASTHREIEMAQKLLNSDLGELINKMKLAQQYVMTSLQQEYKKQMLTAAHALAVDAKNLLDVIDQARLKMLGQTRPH
assayMetric: IC50
Put your answer as a value accompanied by its unit after it.

[ask] State its IC50 on FAK (Homo sapiens, UniProt Q05397): CNC(=O)c1ccccc1Nc1nc(N/N=C/c2ccc(F)cc2)ncc1Cl [14f]
[reply] 35 nM

====

Exercise: for every item that follows, state its recorded melting point.

Consider the following illustrative entries.
molecule	melting point
CNC(=O)c1ccccc1Nc1nc(N/N=C/c2ccc3cccnc3c2)ncc1Cl [14w]	241.7 to 242.1 °C
CNC(=O)c1ccccc1Nc1nc(N/N=C/c2ccc(OC)c(OC)c2)ncc1Cl [14o]	214.1 to 215.2 °C
CNC(=O)c1ccccc1Nc1nc(N/N=C/c2c[nH]c3ccccc23)ncc1Cl [14x]	203.3 to 204.8 °C
CNC(=O)c1ccccc1Nc1nc(N/N=C/c2ccncc2)ncc1Cl	215.1 to 216.8 °C
CNC(=O)c1ccccc1Nc1nc(N/N=C/c2ccc(C)cc2)ncc1Cl [14b]	207.1 to 208.1 °C

Batch of 2 molecules: report melting point for each.
1. CNC(=O)c1ccccc1Nc1nc(N/N=C/c2cn(C)c3ccccc23)ncc1Cl
2. CNC(=O)c1ccccc1Nc1nc(N/N=C/c2ccc3[nH]ccc3c2)ncc1Cl [14aa]

[reply]
["217.2 to 219.1 °C", "218.1 to 219.9 °C"]

Batch of 5 molecules: report melting point for each.
1. CNC(=O)c1ccccc1Nc1nc(N/N=C/c2ccc(C(F)(F)F)cc2)ncc1Cl [14e]
2. CNC(=O)c1ccccc1Nc1nc(N/N=C(\C)c2ccc(OC)cc2)ncc1Cl [14ac]
3. CNC(=O)c1ccccc1Nc1nc(N/N=C/c2ccc3cc[nH]c3c2)ncc1Cl [14ab]
4. CNC(=O)c1ccccc1Nc1nc(N/N=C/c2ccc(Br)cc2)ncc1Cl [14h]
5. CNC(=O)c1ccccc1Nc1nc(N/N=C/c2c[nH]c3ccc(OC)cc23)ncc1Cl [14z]

[reply]
206.6 to 208.8 °C
216.7 to 217.1 °C
216.1 to 217.7 °C
192.1 to 193.2 °C
217.1 to 218.2 °C
